// data source = the Immune Epitope Database (IEDB)

Target: HLA-A*02:01
Experiment: IEDB peptide-MHC binding, purified MHC/direct/fluorescence; filed as Kd, often an IC50 or EC50 that approximates it; bounds were set here for any values at or beyond the usual limits of such assays
Details: source organism: Escherichia coli
Readout: Kd

[
  {
    "Residue string": "SHDTIGPYY",
    "Result": "≥ 20 µM"
  }
]

====

Target: HLA-B*07:02
Experiment: IEDB peptide-MHC binding, purified MHC/direct/fluorescence; filed as Kd, often an IC50 or EC50 that approximates it; bounds were set here for any values at or beyond the usual limits of such assays
Conditions: source organism: Salmonella enterica subsp. enterica serovar Typhi
Readout: Kd

[
  {
    "Residue string": "PSEDEQQGH",
    "Result": "≥ 20 µM"
  }
]
